- PROCEDURE_TEXT: growth effects on S. cerevisiae YJM789 – YJM789 clinical isolate, OD600, 24 h, basal, primary screen (AID 1089);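 note: growth of clinical yeast isolate S. cerevisiae YJM 789 seeded 1000 cells per well; test concentration not given here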
- STUDY_CONDITIONS: higher = more signal, called active from +8 up or from −8 down
PROPERTY_NAME: z-score
Lab note: jot down the number only; don't add units.

These recorded examples may help you get a feel for the data.
INSERT INTO results (compound, meas_value) VALUES
  ('CCCC[C@@H]1C[C@H]1[C@@H](NC(=O)c1ccco1)c1ccccc1', -0.867),
  ('COc1ccc([Si](C)(C)[C@@H]2[C@@H](CCO)O[C@]3(C(=O)N(Cc4ccccc4)c4ccc(N(C=O)c5ccccc5)cc43)[C@H]2C)cc1', 0.697),
  ('COC(=O)[C@@]1(Cc2ccc(F)cc2)[C@H]2c3cc(C(=O)N(C)C)n(CCCNc4ccc(C(F)(F)F)cc4Cl)c3C[C@H]2CN1C(=O)c1ccccc1', 0.406),
  ('C=CC[C@]1(C(=O)NCCN2CCOCC2)N=C(c2ccc(OCCCO)cc2)O[C@H]1c1ccccc1N=[N+]=[N-]', -0.941),
  ('CC(C)C(CO)N1C(=O)[C@@H]2[C@H]3C(=O)OCC=C[C@H]3OC23C=CCN(c2ccc4ccccc4c2)C(=O)[C@@H]13 (stereo partly drawn)', 0.523),
  ('O=C(N1CCCCC1)[C@]1(CCS(=O)(=O)c2ccccc2)N=C(c2ccc(OCCCO)cc2)O[C@@H]1c1ccccc1', -0.503),
  ('CCOC(=O)C=Cc1cccc(OC)c1O', -9.3),
  ('COCCOC(=O)N1C(=O)[C@@]2(c3cc(C#CCC(C(=O)OC)C(=O)OC)ccc31)[C@H](c1ccc(OCCO)cc1)N1[C@H](c3ccccc3)[C@H](c3ccccc3)OC(=O)[C@H]1[C@@H]2C(=O)NC[C@H](O)c1ccccc1', 2.11);

Data request, read-out z-score, for COC(=O)[C@@]1(Cc2ccccc2)[C@H]2c3cc(C(=O)N(C)C)n(Cc4ccccc4)c3C[C@H]2CN1C(=O)c1ccccc1 0.84

Data request, read-out z-score, for CCCC[C@H]1OB(O)C[C@H]2C1=C(COc1ccccc1)C[C@H]1C(=O)N(Cc3ccccc3)C(=O)[C@H]12 -1.87

Data request, read-out z-score, for COCCCNC(=O)[C@@]1(Cc2ccccc2I)c2ccccc2C(=O)N(Cc2ccccc2)[C@H]1c1ccc(CO)cc1 0.411

Data request, read-out z-score, for CCN(CC)c1ccc(N2CC=CC34O[C@@H]5C=CCOC(=O)[C@@H]5[C@H]3C(=O)N(CCCCCO)[C@@H]4C2=O)cc1 (stereo partly drawn) -0.821

Data request, read-out z-score, for C=CCOC(=O)[C@H]1[C@@H]2C(=O)O[C@@H](c3ccccc3)[C@@H](c3ccccc3)N2[C@@H](c2ccc(OCCOC(=O)[C@H]3C[C@H]4C(=O)N[C@@H](CCCC[N+](C)(C)C)C(=O)N4[C@H]3c3ccc(O)cc3)cc2)[C@]12C(=O)Nc1ccccc12 -0.193

Data request, read-out z-score, for CC(C)(C)OC(=O)CC[C@@]1(C(=O)NCC(O)CO)N=C(c2ccc(OCCCO)cc2)O[C@@H]1c1ccccc1 (stereo partly drawn) 0.531

Data request, read-out z-score, for COc1ccc(C#Cc2ccc3c(c2)[C@]2(C(=O)N3)[C@H](c3ccc(OCCO)cc3)N3[C@H](c4ccccc4)[C@H](c4ccccc4)OC(=O)[C@H]3[C@@H]2C(=O)Nc2nc3ccccc3s2)cc1 2

Data request, read-out z-score, for COCCn1c(C(=O)N(C)C)cc2c1C[C@H]1CN(C(=O)c3ccccc3)[C@@](Cc3ccc(F)cc3)(C(=O)OC)[C@@H]21 0.296

Data request, read-out z-score, for C[n+]1ccc2ccc(O)cc2c1 0.0119

Data request, read-out z-score, for CN1C(=O)C2C(C1=O)C1C=C(c3ccc(CO)cc3)C2C(C2CC2)N1Cc1cc2c(cc1Br)OCO2 (stereo not drawn) -3.93

Data request, read-out z-score, for O=C1O[C@H](c2ccccc2)[C@H](c2ccccc2)N2[C@H]1[C@@H](C(=O)NC[C@H](O)c1ccccc1)[C@]1(C(=O)Nc3ccc(C#CC4=CCCCC4)cc31)[C@H]2c1ccc(O)cc1 0.896

====

Measured composite z-score values are reported for all entries that follow.
- ASSAY_SYSTEM: Neurogenic locus notch homolog protein 2 (Homo sapiens) (UniProt Q04721)
- Sequence (Q04721 whole entry, looked up): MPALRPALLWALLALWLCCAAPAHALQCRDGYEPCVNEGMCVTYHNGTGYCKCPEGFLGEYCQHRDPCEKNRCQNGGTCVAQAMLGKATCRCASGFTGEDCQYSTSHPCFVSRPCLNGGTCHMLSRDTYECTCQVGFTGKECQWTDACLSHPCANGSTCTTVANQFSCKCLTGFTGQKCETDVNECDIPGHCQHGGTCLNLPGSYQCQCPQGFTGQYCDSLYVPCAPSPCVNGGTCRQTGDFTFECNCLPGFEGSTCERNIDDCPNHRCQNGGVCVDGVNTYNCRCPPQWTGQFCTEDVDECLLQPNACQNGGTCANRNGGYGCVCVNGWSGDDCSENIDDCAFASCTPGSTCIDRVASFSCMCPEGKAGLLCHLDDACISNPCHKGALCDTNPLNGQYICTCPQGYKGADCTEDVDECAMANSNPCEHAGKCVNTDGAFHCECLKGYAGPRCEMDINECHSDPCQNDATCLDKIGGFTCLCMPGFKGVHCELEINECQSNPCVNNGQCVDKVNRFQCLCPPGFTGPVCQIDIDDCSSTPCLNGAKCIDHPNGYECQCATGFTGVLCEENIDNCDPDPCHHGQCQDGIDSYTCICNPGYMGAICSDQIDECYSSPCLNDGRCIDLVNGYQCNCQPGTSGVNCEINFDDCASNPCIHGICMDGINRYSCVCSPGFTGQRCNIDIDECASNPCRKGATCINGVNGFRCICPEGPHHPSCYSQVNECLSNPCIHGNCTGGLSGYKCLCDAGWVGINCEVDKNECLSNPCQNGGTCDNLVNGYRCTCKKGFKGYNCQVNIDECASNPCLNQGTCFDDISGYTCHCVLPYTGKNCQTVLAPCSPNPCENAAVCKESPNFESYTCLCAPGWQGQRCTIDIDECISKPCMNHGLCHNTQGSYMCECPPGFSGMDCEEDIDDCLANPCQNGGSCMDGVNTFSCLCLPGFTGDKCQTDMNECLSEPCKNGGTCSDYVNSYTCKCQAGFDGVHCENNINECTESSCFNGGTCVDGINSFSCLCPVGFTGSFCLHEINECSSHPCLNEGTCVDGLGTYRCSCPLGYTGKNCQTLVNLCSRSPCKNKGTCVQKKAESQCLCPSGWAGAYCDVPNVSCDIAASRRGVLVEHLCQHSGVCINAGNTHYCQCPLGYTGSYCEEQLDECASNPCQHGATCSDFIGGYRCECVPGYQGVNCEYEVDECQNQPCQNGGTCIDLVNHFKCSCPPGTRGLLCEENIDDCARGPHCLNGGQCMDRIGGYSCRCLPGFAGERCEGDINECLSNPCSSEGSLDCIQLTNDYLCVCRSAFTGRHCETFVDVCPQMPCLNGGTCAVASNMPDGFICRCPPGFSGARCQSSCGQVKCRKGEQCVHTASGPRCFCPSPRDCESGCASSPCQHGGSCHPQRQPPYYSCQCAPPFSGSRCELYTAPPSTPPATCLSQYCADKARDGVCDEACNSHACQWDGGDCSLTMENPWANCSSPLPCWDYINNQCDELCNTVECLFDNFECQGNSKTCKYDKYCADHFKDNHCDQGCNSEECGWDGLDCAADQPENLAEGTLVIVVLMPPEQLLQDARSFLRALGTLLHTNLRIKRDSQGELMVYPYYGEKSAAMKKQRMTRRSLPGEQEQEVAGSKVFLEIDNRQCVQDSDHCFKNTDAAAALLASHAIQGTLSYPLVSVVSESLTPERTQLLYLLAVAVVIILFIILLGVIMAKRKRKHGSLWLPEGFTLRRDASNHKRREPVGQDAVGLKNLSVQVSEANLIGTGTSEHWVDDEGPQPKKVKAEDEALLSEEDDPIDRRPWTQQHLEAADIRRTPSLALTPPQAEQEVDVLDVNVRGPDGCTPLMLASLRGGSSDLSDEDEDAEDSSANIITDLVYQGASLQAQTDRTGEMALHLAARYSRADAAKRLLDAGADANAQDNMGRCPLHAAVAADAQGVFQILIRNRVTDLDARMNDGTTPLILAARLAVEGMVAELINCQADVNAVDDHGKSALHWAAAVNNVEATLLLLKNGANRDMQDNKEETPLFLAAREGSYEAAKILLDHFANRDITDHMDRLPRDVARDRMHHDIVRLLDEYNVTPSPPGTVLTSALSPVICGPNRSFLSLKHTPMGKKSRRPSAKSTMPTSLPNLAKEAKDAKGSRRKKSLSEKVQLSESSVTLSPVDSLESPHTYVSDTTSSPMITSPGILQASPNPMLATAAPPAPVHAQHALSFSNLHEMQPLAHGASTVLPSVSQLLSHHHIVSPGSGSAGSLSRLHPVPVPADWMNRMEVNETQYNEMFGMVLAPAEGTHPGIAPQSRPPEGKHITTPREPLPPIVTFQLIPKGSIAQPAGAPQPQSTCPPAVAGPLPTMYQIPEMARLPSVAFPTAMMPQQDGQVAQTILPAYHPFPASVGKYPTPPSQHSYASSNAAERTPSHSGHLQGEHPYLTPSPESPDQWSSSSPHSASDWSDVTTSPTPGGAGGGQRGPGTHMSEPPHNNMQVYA
- PROCEDURE_TEXT: small molecules binding Notch2 protein – biochemical, small-molecule microarray, 635 nm fluorescence, stem cell growth factors, primary screen (AID 1073)
- STUDY_CONDITIONS: higher = more signal
Lab note: jot down the number only; don't add units.

INSERT INTO assay_data (compound, meas_value) VALUES
  ('C=CC[C@@]1(C(N)=O)N=C(c2ccc(OCCCO)cc2)O[C@@H]1c1ccccc1N=[N+]=[N-]', 1.13),
  ('O=C1O[C@H](c2ccccc2)[C@H](c2ccccc2)N2[C@H]1[C@@H](C(=O)N1CCCCCCC1)[C@]1(C(=O)Nc3ccc(C#CC4=CCCCC4)cc31)[C@H]2c1ccc(O)cc1', 1.84),
  ('COC(=O)[C@@]1(Cc2ccc(OC)cc2)[C@H]2c3cc(C(=O)N4CCCC4)n(CCN4CCOCC4)c3C[C@H]2CN1C(=O)c1ccccc1', 1.59),
  ('C=CC[C@]1(C(=O)O)N=C(c2ccc(OCCCO)cc2)O[C@H]1c1ccccc1CN=[N+]=[N-]', -0.129),
  ('[N-]=[N+]=Nc1ccccc1[C@H]1OC(c2ccc(OCCCO)cc2)=N[C@@]1(CCS(=O)(=O)c1ccccc1)C(=O)N1CCOCC1', 1.7),
  ('CCN(CC)c1ccc(N2CC=CC34O[C@@H]5C=CCCOC(=O)C5[C@H]3C(=O)N(CCCO)[C@@H]4C2=O)cc1 (stereo partly drawn)', -0.816),
  ('C=C(C)[C@@H]1CC=C(C(O)C2C=CC3C(=O)N(Cc4ccccc4)C(=O)C3N2n2cnnc2)CC1 (stereo partly drawn)', -0.274);

# ---- query compound ----
Data request, read-out composite z-score, for O=P(NCC1(CC2(c3ccccc3)CO2)CC1)(c1ccccc1)c1ccccc1 (stereo not drawn) -0.401

====

- Tested on: PRMT1 (protein arginine N-methyltransferase 1)
- PROCEDURE_TEXT: small molecules binding arginine methyltransferase PRMT1 – biochemical, small-molecule microarray, 635 nm fluorescence, primary screen (AID 1088);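 note: binding of Prmt1 protein to compounds spotted on small-molecule microarray slides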
- STUDY_CONDITIONS: higher = more signal
Measured composite z-score values are reported for all entries that follow.
Lab note: jot down the number only; don't add units.

Data request, read-out composite z-score, for [N-]=[N+]=NCc1ccccc1C[C@]1(C(=O)NCC(O)CO)COC(c2ccc(OCCCO)cc2)=N1 (some centres not stated) 0.638

Data request, read-out composite z-score, for CN(C)CCCC[C@@H]1NC(=O)[C@@H]2C[C@H](C(=O)NCCCCCN)[C@H](c3ccc(O)cc3)N2C1=O 0.255

Data request, read-out composite z-score, for O=[N+]([O-])c1ccc(C[n+]2ccc(CCCO)cc2)o1 0.464

Data request, read-out composite z-score, for C[n+]1ccc2ccc(O)cc2c1 1.56

Data request, read-out composite z-score, for CCCC[C@@H]1C[C@H]1[C@@H](NC(=O)c1ccco1)c1ccccc1 -0.206

Data request, read-out composite z-score, for CN1C(=O)C2C=CC(C(O)C3=C[C@H]4C[C@@H](C3)C4(C)C)N(Nc3ccc([N+](=O)[O-])cc3[N+](=O)[O-])C2C1=O (some centres not stated) 1.49

Data request, read-out composite z-score, for COc1ccc([Si](C)(C)[C@H]2[C@H](CC(=O)N(CCO)Cc3ccccc3)O[C@@]3(C(=O)N(Cc4cccc(N5C(=O)c6cccc7cccc5c67)c4)c4ccccc43)[C@@H]2C)cc1 1.19

====

- PROCEDURE_TEXT: growth of efflux-deficient E. coli DRC39 – strain DRC39, OD650, 48 h, E. coli filamentation inducers, primary screen (AID 1179);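 note: screen aims at cell division blockers that make cells filament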
- STUDY_CONDITIONS: E. coli DRC39 delta-acrAB growth, higher = more signal, called active from +8 up or from −8 down
Measured z-score values are reported for all entries that follow.
Lab note: jot down the number only; don't add units.

INSERT INTO measurements (compound, property_name, meas_value) VALUES
  ('COC(=O)[C@@]1(Cc2ccc(OC)cc2)[C@H]2c3cc(C(=O)N(C)C)n(Cc4ccc(OC)c(OC)c4)c3C[C@H]2CN1C(=O)c1ccccc1', 'z-score', 0.0309);

Data request, read-out z-score, for COCCCNC(=O)[C@@]1(Sc2ccc(C)cc2)CC(=O)N(Cc2ccccc2)[C@@H]1c1ccc(CO)cc1 0.127

Data request, read-out z-score, for CN1C(=O)C2C=CC(C(O)c3ccc(Br)cc3)N(Nc3ccccc3)C2C1=O (configuration not stated) -0.413
